- Tested on: Fibroblast
- assay_details: Incucyte cell viability with human fibroblast; also: unitless GR value; below 1 slowed growth and below 0 cell loss
- Assay type: toxicity, cell-based
- conditions: 12 h, 10 µM, compound concentration 10 uM, replicate number 2
Attribute: Growth Rate
Give the figure only, with no unit attached.

[[record]]
molecule = "C=CC(=O)N1CCC[C@@H](n2nc(-c3ccc(Oc4ccccc4)cc3)c3c(N)ncnc32)C1"
quantity = "Growth Rate"
endpoint_value = 0.79


In: Please give the measured Growth Rate for this molecule: C=CC(=O)Nc1cc(-c2nn(C3CCC(N4CCN(C(C)=O)CC4)CC3)c3ncnc(N)c23)ccc1Oc1ccccc1 (configuration not stated)
Out: 0.07

In: Do the same for `C[C@@H](COCCC(=O)N1CCN(c2ncc(C(F)(F)F)cn2)CC1)Nc1cn[nH]c(=O)c1C(F)(F)F` please
Out: 0.15

In: Do the same for `Cc1cc(Nc2ncc(Cl)c(Nc3ccccc3S(=O)(=O)C(C)C)n2)c(OC(C)C)cc1C1CCNCC1` please
Out: -0.99

In: Do the same for `CN1C(=O)c2ccccc2N(C)c2nc(Nc3cnn(C4CCNCC4)c3)ncc21` please
Out: 0.94

In: Do the same for `Nc1ncnc2c1c(COc1cccc(Cl)c1)nn2C1CCOCC1` please
Out: 0.6

In: Do the same for `CNC(=O)c1c[nH]c2ccc(Nc3nccc(-c4ccccn4)n3)cc12` please
Out: 0.41

In: Do the same for `Cc1c(NC(=O)COc2ccc(Cl)cc2C(=O)c2cc(F)cc(C(F)(F)F)c2)ccc(C(=O)O)c1F` please
Out: 0.54

In: Do the same for `Cc1cc(Cn2c(N3CC4(CNC4)C3)nc3c(N4CCN(C)CC4)cc(Cl)cc32)cc(C)c1F` please
Out: -1

In: Do the same for `NS(=O)(=O)c1ccc(Nc2nc(OCC3CCCCC3)c3nc[nH]c3n2)cc1` please
Out: 0.55

In: Do the same for Cc1ccc2c(N)c(C(=O)NC3CCc4cc(N5CC6CCC(C5)N6)ccc4C3)sc2n1.O=CO (configuration not stated) please
Out: -0.17

In: Do the same for `CC(C)(C)c1cc(NC(=O)c2csc(Nc3ccc(Cl)cc3)n2)no1` please
Out: 0.46

Data credit: ChEMBL document CHEMBL5303304
